pEC50: recorded values
Tested on: T. brucei brucei TbAT1 KO
Assay: In vitro activity against TbAT1 knockout line lacking the P2 transporter
Assay type: cell-based, Trypanosoma brucei brucei
Settings: Trypanosoma brucei, read-out: T. brucei brucei EC50 TbAT1 KO
Please note pEC50 is a logarithmic value: minus log10 of concentration in mol/L. Answer with that number alone.

compound	target-entity	value-type	value
Cl.Cl.NCC(CON)OC(=O)CCCNc1nc(N)nc(N)n1 (centres unmarked) [Compound 11d]	T. brucei brucei TbAT1 KO	pEC50	3.54

Alright, here's another compound for you.
Problem: For the compound CC(C)(C)OC(=O)NCC(CONC(=O)OC(C)(C)C)OC(=O)CCNc1nc(N)nc(N)n1 (centres unmarked) [Compound 10b] , report pEC50.
Result: 4.40
